# Tested target: IGF-1R on SW480 cells (UniProt P08069 31-1367, limits assumed)
# Sequence (P08069 31-1367 limits assumed): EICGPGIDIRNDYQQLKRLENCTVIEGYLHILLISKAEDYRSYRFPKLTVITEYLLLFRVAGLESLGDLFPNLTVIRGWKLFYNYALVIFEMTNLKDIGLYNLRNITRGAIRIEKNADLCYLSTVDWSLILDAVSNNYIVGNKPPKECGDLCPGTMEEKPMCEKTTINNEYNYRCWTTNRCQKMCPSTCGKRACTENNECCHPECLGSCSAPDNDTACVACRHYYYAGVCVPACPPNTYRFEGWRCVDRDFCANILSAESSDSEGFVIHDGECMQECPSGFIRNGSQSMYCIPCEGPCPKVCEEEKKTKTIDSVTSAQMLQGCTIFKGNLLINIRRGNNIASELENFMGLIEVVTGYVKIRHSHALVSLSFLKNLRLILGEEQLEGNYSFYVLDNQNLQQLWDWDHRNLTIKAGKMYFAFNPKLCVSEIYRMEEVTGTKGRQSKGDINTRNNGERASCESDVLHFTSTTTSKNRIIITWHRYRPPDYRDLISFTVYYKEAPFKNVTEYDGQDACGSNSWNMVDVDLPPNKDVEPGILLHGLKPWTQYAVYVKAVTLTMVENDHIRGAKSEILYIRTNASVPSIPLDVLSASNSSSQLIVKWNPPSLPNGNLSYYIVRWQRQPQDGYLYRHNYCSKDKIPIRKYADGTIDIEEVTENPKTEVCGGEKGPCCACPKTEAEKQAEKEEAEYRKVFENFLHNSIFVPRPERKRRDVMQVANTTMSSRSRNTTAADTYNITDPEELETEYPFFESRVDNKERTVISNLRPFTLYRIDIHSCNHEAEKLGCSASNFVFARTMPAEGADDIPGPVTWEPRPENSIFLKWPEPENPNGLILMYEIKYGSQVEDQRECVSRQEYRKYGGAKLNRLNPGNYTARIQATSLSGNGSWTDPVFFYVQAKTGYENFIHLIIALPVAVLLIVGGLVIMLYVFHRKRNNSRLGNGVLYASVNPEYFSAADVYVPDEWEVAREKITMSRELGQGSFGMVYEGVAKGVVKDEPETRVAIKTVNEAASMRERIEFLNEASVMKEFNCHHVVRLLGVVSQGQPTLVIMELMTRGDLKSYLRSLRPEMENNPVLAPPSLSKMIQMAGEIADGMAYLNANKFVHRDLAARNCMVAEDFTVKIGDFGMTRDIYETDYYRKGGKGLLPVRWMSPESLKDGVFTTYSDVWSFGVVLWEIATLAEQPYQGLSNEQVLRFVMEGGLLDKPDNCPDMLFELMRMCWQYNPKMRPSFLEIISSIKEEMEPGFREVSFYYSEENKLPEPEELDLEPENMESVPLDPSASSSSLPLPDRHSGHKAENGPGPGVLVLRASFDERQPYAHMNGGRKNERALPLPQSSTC
# Protocol text: cell-based or functional assay
Test readout: IC50 in SW480 (M) in presence of IGF-1
Numeric only. Scale: M

# Binder, IC50 in SW480 (M) in presence of IGF-1
records = [
    ("EVDRDCQARPCGDAANFYDWFGQQGTE [F269]", "5e-07"),
]

Please find the next binder below.
IC50 in SW480 (M) in presence of IGF-1 measured on EFSGFCMGLERLSQVSLGYCGAGQGGE [F169] = 2e-06

The measured values listed here are drawn from patent US20110039779A1.
